- SYSTEM: Nuclear receptor ROR-gamma (Homo sapiens)
- ASSAY_NOTES: qHTS assay for small molecule antagonists of the retinoid-related orphan receptor gamma (ROR-gamma) signaling pathway (AID 651802); also: nearly all actives have a fitted effect of over 60% in size
- SETUP_CONDITIONS: ROR-gamma antagonist cell reporter assay; series mostly up to 92.2 µM
Records with an inconclusive call do not appear. Active and inactive are the calls of the source. Calls follow the shape of the dose curve; as a rule, active = well fitted inhibition curve with a large enough effect; inconclusive = small, poorly fitted or top-dose-only effect; inactive = no such curve, though single readings can be large or run the other way.
Outcomes: 1 = active, -1 = inactive

{"SMILES_REPR": "CN(C)C(=S)SSC(=S)N(C)C", "ASSIGNED_CATEGORY": 1}
{"SMILES_REPR": "O=C(CCl)c1ccc(Cl)cc1Cl", "ASSIGNED_CATEGORY": 1}
{"SMILES_REPR": "Oc1ccc(Cl)cc1Sc1cc(Cl)ccc1O", "ASSIGNED_CATEGORY": 1}
{"SMILES_REPR": "CC[n+]1c(-c2ccccc2)c2cc(N)ccc2c2ccc(N)cc21", "ASSIGNED_CATEGORY": -1}

* * *

- System: Es-2
- ASSAY_NOTES: Primary qHTS to identify gynecologic anti-cancer compounds using libraries of approved drugs and bioactive compounds (AID 1345084); also: nearly all actives have a fitted effect of over 55% in size
- SETUP_CONDITIONS: Gynecologic cancer cell panel viability, ATPlite luminescence, 48 h; series mostly up to 57.5 µM
Results filed as inconclusive are left out. The source made the active and inactive calls. Calls come from the whole dose curve; as a rule, active = well fitted cell-killing curve with a large enough effect; inconclusive = small, poorly fitted or top-dose-only effect, or effect the other way; inactive = flat fitted curve, though single readings scatter.
Outcomes: true (1) for active, false (0) for inactive

{"COMPOUND": "CC(C(O)c1ccccc1)N(C)C/C=C/c1ccccc1 (stereo not drawn)", "ASSIGNED_CATEGORY": "false (0)"}
{"COMPOUND": "COc1cc(CC#N)cc(OC)c1OC", "ASSIGNED_CATEGORY": "false (0)"}
{"COMPOUND": "CCOC(=O)NC(O)C(Cl)(Cl)Cl (stereo not drawn)", "ASSIGNED_CATEGORY": "false (0)"}
{"COMPOUND": "Cc1ccc(N=CN(C)C=Nc2ccc(C)cc2C)c(C)c1", "ASSIGNED_CATEGORY": "false (0)"}
{"COMPOUND": "O=C(CCCN1CCC(n2c(=O)[nH]c3ccccc32)CC1)c1ccc(F)cc1", "ASSIGNED_CATEGORY": "false (0)"}
{"COMPOUND": "C[C@H]1CNCCc2ccc(Cl)cc21", "ASSIGNED_CATEGORY": "false (0)"}
{"COMPOUND": "NC(=O)CN1CCCC1=O", "ASSIGNED_CATEGORY": "false (0)"}
{"COMPOUND": "CC(C)=CCN1CC[C@@]2(C)c3cc(O)ccc3C[C@@H]1[C@@H]2C", "ASSIGNED_CATEGORY": "true (1)"}

* * *

- SETUP_CONDITIONS: Ebola virus entry assay, green fluorescence channel
Entries with a potency or affinity are not part of this list.
Entries get a class label from measured efficacy. See ranges: group A (below -30%), group B (-30% to below 10%), group C (10% or more)

{"MOLECULE": "CCOC(=O)c1cncn1C(C)c1ccccc1 (configuration not stated)", "ASSIGNED_CATEGORY": "group C"}
{"MOLECULE": "CN(C)CCc1c[nH]c2ccc(O)cc12", "ASSIGNED_CATEGORY": "group B"}
{"MOLECULE": "CC(=O)OCC1=C(C(=O)O)N2C(=O)[C@@H](NC(=O)CSc3ccncc3)[C@H]2SC1", "ASSIGNED_CATEGORY": "group B"}
{"MOLECULE": "CCCCCCCCNC(C)C(O)c1ccc(SC(C)C)cc1 (configuration not stated)", "ASSIGNED_CATEGORY": "group C"}
{"MOLECULE": "Cc1c(C)n(CCN(C)C)c2ccc(C(=O)OCCN(C)C)cc12", "ASSIGNED_CATEGORY": "group B"}
{"MOLECULE": "CC(CC(C(N)=O)(c1ccccc1)c1ccccc1)N(C)C (configuration not stated)", "ASSIGNED_CATEGORY": "group C"}
{"MOLECULE": "Cc1ccc([N+](=O)[O-])[c]2c1[O][Hg]2", "ASSIGNED_CATEGORY": "group A"}
{"MOLECULE": "CN(C)C(=O)Oc1cccc([N+](C)(C)C)c1", "ASSIGNED_CATEGORY": "group B"}
{"MOLECULE": "CC(C(O)c1ccccc1)N(C)CCOC(c1ccccc1)c1ccccc1 (configuration not stated)", "ASSIGNED_CATEGORY": "group C"}
{"MOLECULE": "Oc1c(Cl)cc(Cl)cc1Sc1cc(Cl)cc(Cl)c1O", "ASSIGNED_CATEGORY": "group B"}
{"MOLECULE": "COc1ccccc1N1CCN(CC(O)COc2cccc3ccccc23)CC1 (configuration not stated)", "ASSIGNED_CATEGORY": "group A"}

Origin of the recorded values: PubChem BioAssay (NCATS)
